Data provenance is the supplement of paper PMC9732359.

# test-protocol: protein stability index of a GFP-peptide fusion (yeast GPS) (PSI 1-4); higher = more stable; sorted into four equal gates, so the index is relative within each strain
# settings: ubr1∆
Below, each entry is listed alongside its reported protein stability index.
Please reply with the number alone, leaving off any unit.

Worked cases, answers included:
monomer-sequence	recorded-value
VPGMPAPIKKIIERYIK [PRP8]	3.16
PHIQKMLSILEIFKKGY [POP6]	2.54
AATMTSAPPPALPHVEI [RGR1]	2.3
RQTTSNTGLLNKANIQA [RPN11]	3.19

What the record says about MTTTIGSPQMLANEERL [RGR1] : protein stability index is 2.63

What the record says about LTNQLYKNHELLKLERK [SNF2] : protein stability index is 3.2

What the record says about AFLSKVPEFFQTANEKH [SRP14] : protein stability index is 3.09

What the record says about ILEDDFAVALKNEPDYS [CDC53] : protein stability index is 2.87

What the record says about AKGVYRPNGRKDHDLKI [POP1] : protein stability index is 3.03

What the record says about NHSNNDIPTIADEHFWA [BRN1] : protein stability index is 3.24

----------
# test-protocol: protein stability index of a GFP-peptide fusion (yeast GPS) (PSI 1-4); higher = more stable; sorted into four equal gates, so the index is relative within each strain
# settings: doa10∆
Given measured protein stability index, output yes (1) if it is greater than or equal to 3 and no (0) if not.

Record excerpt, results attached:
monomer-sequence	class-name
NALWILVDLVSHFSPDI [ITC1]	no (0)
LKNMLYVLSTAVEFESV [BRR2]	no (0)
APNNSNGGSEEEITCAL [MED7]	yes (1)
LLSKLLLKHPFKAIHGS [YCS4]	no (0)

In plain terms: is recorded protein stability index at least 3 for VTLDFGNIFADLLPNSF [SMC2] ?
no (0)

In plain terms: is recorded protein stability index at least 3 for SMGTMICGYTRKEGPTI [PRE2] ?
yes (1)

In plain terms: is recorded protein stability index at least 3 for RFWSFMKTQRFVSNMGF [SIR4] ?
no (0)

In plain terms: is recorded protein stability index at least 3 for HPKLIKNKSGKIFVETK [FAS1] ?
no (0)

In plain terms: is recorded protein stability index at least 3 for KSKEDMKQLKFFKPLDY [SNU114] ?
yes (1)

In plain terms: is recorded protein stability index at least 3 for NTVMLQGIFKNSSNYFG [AAR2] ?
no (0)

In plain terms: is recorded protein stability index at least 3 for QQAQSFVGKKNTIGSVH [SSN3] ?
yes (1)

In plain terms: is recorded protein stability index at least 3 for RLWLKKVMEEEEQDCKC [POP8] ?
no (0)

In plain terms: is recorded protein stability index at least 3 for AVKNKYNVGKQLSNEII [PRP28] ?
no (0)

In plain terms: is recorded protein stability index at least 3 for SNSSELEPDYQAPFSTS [MED1] ?
no (0)

In plain terms: is recorded protein stability index at least 3 for IVLGVKDLQENLLVLRG [RPO21] ?
no (0)

In plain terms: is recorded protein stability index at least 3 for IHTQLSEIKQQINKAQI [YJL039C/NUP192] ?
no (0)

In plain terms: is recorded protein stability index at least 3 for AHSLSPKDYIKKLLEVH [CDC53] ?
no (0)

In plain terms: is recorded protein stability index at least 3 for TSFEQGEITFDGIGGLT [RPT4] ?
yes (1)

In plain terms: is recorded protein stability index at least 3 for IKAFMDSTIGNSKVDMK [IRR1] ?
no (0)

In plain terms: is recorded protein stability index at least 3 for TPIIFIGTGEHIHDLEK [SRP54] ?
no (0)

In plain terms: is recorded protein stability index at least 3 for YAKFKRNTMMIQCQIDK [RGR1] ?
no (0)

In plain terms: is recorded protein stability index at least 3 for KLYQTEPSGIYSSWSAQ [PRE6] ?
no (0)
